The values you see were collected from the supplement of paper PMC7724964.

I'd be grateful if you could share measured phage ELISA signal ratio for these entries.
Target: T1, SPRED3 1-117 WH1 (domain begin residue: 1, domain end residue: 117), Q2MJR0
T1 chain: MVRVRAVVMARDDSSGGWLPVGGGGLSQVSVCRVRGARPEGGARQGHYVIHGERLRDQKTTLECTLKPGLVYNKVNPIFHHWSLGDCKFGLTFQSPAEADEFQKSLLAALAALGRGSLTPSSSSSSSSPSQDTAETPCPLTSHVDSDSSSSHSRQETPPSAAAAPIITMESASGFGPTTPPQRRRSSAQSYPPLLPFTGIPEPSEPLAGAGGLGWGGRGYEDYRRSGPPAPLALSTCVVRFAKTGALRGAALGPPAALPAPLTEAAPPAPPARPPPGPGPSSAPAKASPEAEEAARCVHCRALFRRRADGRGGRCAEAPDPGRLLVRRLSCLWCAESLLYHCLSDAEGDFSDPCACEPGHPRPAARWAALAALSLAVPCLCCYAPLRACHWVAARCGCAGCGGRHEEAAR
Assay: phage ELISA signal ratio (GST-PRM binding over GST background); higher = stronger binding of peptide-phage to the PRM
Give bare numbers.

Batch: phage ELISA signal ratio for all items listed.
1. TPWWETTSTVMTYIKM
2. EPDYGTAWFQHMMQEW

1. 19.4
2. 31

Batch: phage ELISA signal ratio for all items listed.
1. HEMFLWDGETVMQVWW
2. EQWWHTPQSVQAWINS

1: 20.8; 2: 19.5

Batch: phage ELISA signal ratio for all items listed.
1. DPGWYWEPAMLEAEWA
2. WTWMGDEEVFYHESLL

28.4
23.8
